The reported numbers originate from patent US9580426B2.

- test.protocol: Water uptake by thermogravimetry after exposure to relative humidity
- Assay type: physicochemical
- conditions: 80% rh during 24 hours
Counter-ions that a name gives are not always drawn.
water uptake below 0.3% gives N; water uptake at or above it gives Y.

CC(C)n1cnc2c(NCCc3ccc(O)cc3)nc(-c3csc4ccccc34)nc21 [Mesylate salt]
Y

Ask: Can CC(C)n1cnc2c(NCCc3ccc(O)cc3)nc(-c3csc4ccccc34)nc21 [Sulfate salt] be said to have water uptake at or above 0.3%?
Result: N

Ask: State whether the measured water uptake reaches 0.3%, counting equality as reaching it, for CC(C)n1cnc2c(NCCc3ccc(O)cc3)nc(-c3csc4ccccc34)nc21 [Esylate salt]
Result: N

Ask: Does the compound CC(C)n1cnc2c(NCCc3ccc(O)cc3)nc(-c3csc4ccccc34)nc21 [Tosylate salt] have recorded water uptake that is 0.3% or more?
Result: Y

Ask: Item CC(C)n1cnc2c(NCCc3ccc(O)cc3)nc(-c3csc4ccccc34)nc21 [Orotate salt] with water uptake of 0.3% or above?
Result: Y

###

- test.protocol: Water uptake by thermogravimetry after exposure to relative humidity
- Type: physicochemical
- conditions: 80% rh during 24 hours
Structures can show the parent of a compound that is named as a salt.
Consider the following compounds; for each one, report its water uptake.
Answers are plain numbers, in %.

CC(C)n1cnc2c(NCCc3ccc(O)cc3)nc(-c3csc4ccccc34)nc21 [Hemi-fumarate salt]
0.3

# water uptake (compound: CC(C)n1cnc2c(NCCc3ccc(O)cc3)nc(-c3csc4ccccc34)nc21 [Hydrochloride salt] ) is 0.3
